These entries and their values trace back to patent US10954221B2.

- system under test: GLP1R (Homo sapiens, UniProt P43220)
- assay explanation: GLP1R cAMP assay (HTRF), HEK293/GLP-1R/CRE/Luc, Clone 4
- Sequence (P43220 24-463): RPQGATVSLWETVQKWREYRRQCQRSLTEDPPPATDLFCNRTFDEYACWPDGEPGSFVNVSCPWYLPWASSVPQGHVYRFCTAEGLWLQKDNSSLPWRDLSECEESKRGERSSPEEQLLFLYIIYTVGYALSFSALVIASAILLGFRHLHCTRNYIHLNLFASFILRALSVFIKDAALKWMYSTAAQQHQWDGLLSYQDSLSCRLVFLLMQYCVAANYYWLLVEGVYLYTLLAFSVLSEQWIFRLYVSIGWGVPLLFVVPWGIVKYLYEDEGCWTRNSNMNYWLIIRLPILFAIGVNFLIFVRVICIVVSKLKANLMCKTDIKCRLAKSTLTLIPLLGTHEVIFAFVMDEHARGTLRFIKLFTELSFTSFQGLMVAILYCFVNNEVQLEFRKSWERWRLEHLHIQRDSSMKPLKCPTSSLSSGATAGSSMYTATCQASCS
pEC50: −log10 of the molar value.
quantity name: pEC50

As a guide, the following entries are already answered.
1. O=C(O)c1ccc2nc(Cc3cc(F)c(-c4cccc(OCc5ccc(F)cn5)n4)cc3F)n(C[C@@H]3CCO3)c2n1: > 7.82
2. N#Cc1ccc(COc2nc(-c3ccc(Cc4nc5ccc(C(=O)O)nc5n4C[C@@H]4CCO4)c(F)c3)ccc2F)c(F)c1: > 7.82
3. O=C(O)c1ccc2nc(CN3CC=C(c4csc(OCc5ccc(Br)cn5)n4)CC3)n(C[C@@H]3CCO3)c2c1: 6.82 to 7.82
4. Cc1cc(Cc2nc3ccc(C(=O)O)cc3n2C[C@@H]2CCO2)ccc1-c1cccc(OCc2ccc(Cl)cc2F)n1: > 7.82
5. N#Cc1ccc(COc2nc(-c3ccc(Cc4nc5ccc(C(=O)O)nc5n4C[C@@H]4CCO4)c(F)c3)ncc2F)c(F)c1: > 7.82

Query: pEC50; subject: "N#Cc1ccc(COc2cccc(N3CCC(=Cc4nc5ccc(C(=O)O)nc5n4C[C@@H]4CCO4)CC3)n2)nc1"
6.82 to 7.82

Query: pEC50; subject: "N#Cc1ccc(COc2cccc(-c3ccc(Cc4nc5ccc(C(=O)O)cc5n4C[C@@H]4CCO4)cc3F)n2)c(F)c1"
> 7.82

Query: pEC50; subject: "O=C(O)c1ccc2nc(Cc3ccc(-c4cccc(OCc5ccc(Cl)cc5F)n4)cc3F)n(C[C@@H]3CCO3)c2c1F"
> 7.82

Query: pEC50; subject: "N#Cc1cnc(COc2nc(-c3ccc(Cc4nc5ccc(C(=O)O)nc5n4C[C@@H]4CCO4)c(F)c3)ncc2F)c(F)c1"
> 7.82

---

- system under test: GLP1R (Homo sapiens)
- assay explanation: GLP1R cAMP assay (HTRF), HEK293/GLP-1R/CRE/Luc, Clone 4
pEC50: −log10 of the molar value.
quantity name: pEC50

Query: pEC50; subject: N#Cc1ccc(COc2nc(-c3ccn(Cc4nc5ccc(C(=O)O)nc5n4C[C@@H]4CCO4)c(=O)c3)ncc2F)c(F)c1 [Compound 325]
6.82 to 7.82

Query: pEC50; subject: O=C(O)c1ccc2nc(CN3CC=C(c4csc(OCc5ccc(Cl)cn5)n4)CC3)n(C[C@@H]3CCO3)c2c1 [Compound 250]
6.82 to 7.82

Query: pEC50; subject: N#Cc1ccc(COc2cccc(-c3cc(F)c(Cc4nc5ccc(C(=O)O)cc5n4C[C@@H]4CCO4)cc3F)n2)c(F)c1 [Compound 271]
> 7.82

---

- system under test: GLP1R (Homo sapiens)
- assay explanation: β-Arrestin-mediated GLP1R internalization assay (PathHunter U2OS cells)
- Type: cell-based
- Set-up: host or cells: PathHunter engineered U2OS cells
- measurement context: averaged Bmax where applicable, Percentage of Control GLP-1 (7-37), top 10 μM, 180 min
- Experimental: A similar assay can also be used to assess the extent of signal attenuation due to GLP-1R internalization (the Internalization Assay). […] Frozen cells were quickly thawed and 10 mL of cell plating medium (provided by the kit) was added to thawed cells. Cells were stored in a 37° C. incubator and kept for approximately 48 hours until ready for the assay. […]
- Sequence (P43220 24-463): as above
- Sequence (P32121 whole entry partner): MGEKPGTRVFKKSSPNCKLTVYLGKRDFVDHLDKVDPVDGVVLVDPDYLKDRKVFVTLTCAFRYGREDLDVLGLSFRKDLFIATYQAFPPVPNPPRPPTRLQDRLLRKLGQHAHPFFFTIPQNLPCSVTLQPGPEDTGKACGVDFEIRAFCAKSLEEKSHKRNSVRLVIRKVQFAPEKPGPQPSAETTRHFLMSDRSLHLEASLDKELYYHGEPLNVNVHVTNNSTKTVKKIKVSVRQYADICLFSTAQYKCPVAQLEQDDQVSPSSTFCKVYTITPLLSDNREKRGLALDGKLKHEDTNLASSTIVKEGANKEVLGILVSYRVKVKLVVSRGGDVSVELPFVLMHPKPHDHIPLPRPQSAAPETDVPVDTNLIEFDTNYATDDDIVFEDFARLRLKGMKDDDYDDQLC
quantity name: β-arrestin internalization Bmax (POC)

1) O=C(O)c1ccc2nc(Cc3cc(F)c(-c4cccc(OCc5ccc(-n6ccnc6)cc5)n4)cc3F)n(C[C@@H]3CCO3)c2n1: 28.4
2) O=C(O)c1ccc2nc(Cc3ccc(-c4cccc(OCc5ccc(Cl)cc5F)c4)cc3F)n(C[C@@H]3CCO3)c2c1: 20.0
3) O=C(O)c1ccc2nc(Cc3ccc(-c4ncc(F)c(OCc5ccc(Cl)cc5F)n4)cc3F)n(C[C@@H]3CCO3)c2c1: 21.6
4) O=C(O)c1ccc2nc(Cc3ccc(-c4nccc(OCc5ccc(Cl)cc5F)n4)cc3F)n(C[C@@H]3CCO3)c2c1F: 26.7

I = N#Cc1ccc(COc2cccc(-c3cc(F)c(Cc4nc5ccc(C(=O)O)nc5n4C[C@@H]4CCO4)cc3F)n2)c(F)c1
II = N#Cc1ccc(COc2nc(-c3ccc(Cc4nc5ccc(C(=O)O)cc5n4C[C@@H]4CCO4)c(F)c3)ncc2F)c(F)c1
III = O=C(O)c1ccc2nc(Cc3ccc(-c4cccc(OCc5ccc(Cl)cc5F)n4)c(F)c3)n(C[C@@H]3CCO3)c2c1F
IV = O=C(O)c1ccc2nc(Cc3ccc(-c4cc(OCc5ccc(Cl)cc5F)ccc4F)c(F)c3)n(C[C@@H]3CCO3)c2c1
Arrange the 4 molecules from largest to smallest β-arrestin internalization Bmax (POC). Reply format: the labels, ordered as requested.
III, I, II, IV
(III: 48.8 POC, I: 29.6 POC, II: 19.9 POC, IV: 9.25 POC)

A = O=C(O)c1ccc2nc(Cc3cc(F)c(-c4cccc(OCc5ncc(Cl)cc5F)n4)cc3F)n(C[C@@H]3CCO3)c2n1
B = O=C(O)c1ccc2nc(Cc3ccc(-c4cccc(OCc5ccc(Cl)cc5F)n4)c(F)c3)n(C[C@@H]3CCO3)c2c1
Could you point out whether the larger β-arrestin internalization Bmax (POC) belongs to A or to B ? Kindly give the label for the entry you pick.
A
(A: 26.7 POC, B: 17.0 POC)

1 = O=C(O)c1ccc2nc(Cc3ccc(-c4cccc(OCc5ccc(Cl)cc5F)n4)c(F)c3F)n(C[C@@H]3CCO3)c2c1
2 = O=C(O)c1ccc2nc(Cc3ccc(-c4cccc(OCc5ccc(Cl)cc5F)n4)cc3F)n(C[C@@H]3CCO3)c2n1
Could you point out whether the larger β-arrestin internalization Bmax (POC) belongs to 1 or to 2 ? Kindly give the label for the entry you pick.
2

P = O=C(O)c1ccc2nc(Cc3ccc(-c4ccc(F)c(OCc5ccc(F)cc5F)n4)cc3F)n(C[C@@H]3CCO3)c2n1
Q = N#Cc1ccc(COc2cccc(-c3ccc(Cc4nc5ccc(C(=O)O)c(F)c5n4C[C@@H]4CCO4)cc3F)n2)c(F)c1
Param metric = β-arrestin internalization Bmax (POC); output whichever of P , Q has the minimum value. Kindly give the label for the entry you pick.
P
(P: 23.0 POC, Q: 33.8 POC)

---

- system under test: GLP1R (Homo sapiens, UniProt P43220)
- assay explanation: β-Arrestin-mediated GLP1R internalization assay (PathHunter U2OS cells)
- Assay type: cell-based
- Parameters: host or cells: PathHunter engineered U2OS cells
- measurement context: averaged Bmax where applicable, Percentage of Control GLP-1 (7-37), top 10 μM, 180 min
quantity name: β-arrestin internalization Bmax (POC)

As a guide, the following entries are already answered.
1. O=C(O)c1ccc2nc(Cc3ccc(-c4ccnc(OCc5ccc(Cl)cc5F)n4)cc3F)n(C[C@@H]3CCO3)c2c1 [Compound 87]: 23.9
2. O=C(O)c1ccc2nc(Cc3ccc(-c4ccc(F)c(OCc5ccc(Cl)cc5F)n4)cc3F)n(C[C@@H]3CCO3)c2c1 [Compound 88]: 29.2
3. O=C(O)c1ccc2nc(Cc3ccc(-c4ccc(F)c(OCc5ccc(Cl)cc5F)n4)c(F)c3)n(C[C@@H]3CCO3)c2c1 [Compound 83]: 27.8

A = O=C(O)c1ccc2nc(Cc3ccc(-c4cccc(OCc5ccc(F)cc5F)n4)c(F)c3)n(C[C@@H]3CCO3)c2n1 [Compound 290]
B = N#Cc1cnc(COc2cccc(-c3cc(F)c(Cc4nc5ccc(C(=O)O)nc5n4C[C@@H]4CCO4)cc3F)n2)c(F)c1 [Compound 278]
Could you point out whether the larger β-arrestin internalization Bmax (POC) belongs to A or to B ? Kindly give the label for the entry you pick.
B
